biological target: aRSV-Fab (Fab fragment of anti-RSV monoclonal IgG Palivizumab, Synagis); assay: SPR (Biacore 3000), aRSV-Fab on CM5 chip, peptide flowed, 25 C, pH 7.4, 1:1 fit
Quantity name: Ka (M⁻¹)

# example entries with known answers
- Binder: "LB5t-T18H.1d (designed binder) GPLGSEQVTIKENIYFEDGTVQTAHFKGTFAEATAEAYRYADLLSKEHGKYTADLEDGGYTINIRFAG"
  Ka, M⁻¹: "1.17e+07"
- Binder: "LB5t-A17H.1d (designed binder) GPLGSEQVTIKENIYFEDGTVQTHTFKGTFAEATAEAYRYADLLSKEHGKYTADLEDGGYTINIRFAG"
  Ka, M⁻¹: "1.08e+06"
- Binder: "LB5t-Q15H.1d (designed binder) GPLGSEQVTIKENIYFEDGTVHTATFKGTFAEATAEAYRYADLLSKEHGKYTADLEDGGYTINIRFAG"
  Ka, M⁻¹: "6.7e+06"
- Binder: "LB5t-T16D.1d (designed binder) GPLGSEQVTIKENIYFEDGTVQDATFKGTFAEATAEAYRYADLLSKEHGKYTADLEDGGYTINIRFAG"
  Ka, M⁻¹: "1.44e+07"
- Binder: "LB5t-T16H.1d (designed binder) GPLGSEQVTIKENIYFEDGTVQHATFKGTFAEATAEAYRYADLLSKEHGKYTADLEDGGYTINIRFAG"
  Ka, M⁻¹: "2.69e+07"
- Binder: "LB5t-T18Q.1d (designed binder) GPLGSEQVTIKENIYFEDGTVQTAQFKGTFAEATAEAYRYADLLSKEHGKYTADLEDGGYTINIRFAG"
  Ka, M⁻¹: "1.26e+07"

[I] LB5t-T16A.1d (designed binder) GPLGSEQVTIKENIYFEDGTVQAATFKGTFAEATAEAYRYADLLSKEHGKYTADLEDGGYTINIRFAG
[II] LB5t-T18D.1d (designed binder) GPLGSEQVTIKENIYFEDGTVQTADFKGTFAEATAEAYRYADLLSKEHGKYTADLEDGGYTINIRFAG
I'm curious whether I or II has the smaller Ka number. Which is it? To answer, give the label that identifies your chosen option.
II
(II: 6.79e+06 M⁻¹, I: 1.87e+07 M⁻¹)
